The reported numbers originate from patent US20210196796A1.

Target: T1, orthogonal hCD122 receptor (hoRb), hCD122 with H133D and Y134F (human, UniProt P14784 27-550); note: reference of the scale not given here
T1 sequence: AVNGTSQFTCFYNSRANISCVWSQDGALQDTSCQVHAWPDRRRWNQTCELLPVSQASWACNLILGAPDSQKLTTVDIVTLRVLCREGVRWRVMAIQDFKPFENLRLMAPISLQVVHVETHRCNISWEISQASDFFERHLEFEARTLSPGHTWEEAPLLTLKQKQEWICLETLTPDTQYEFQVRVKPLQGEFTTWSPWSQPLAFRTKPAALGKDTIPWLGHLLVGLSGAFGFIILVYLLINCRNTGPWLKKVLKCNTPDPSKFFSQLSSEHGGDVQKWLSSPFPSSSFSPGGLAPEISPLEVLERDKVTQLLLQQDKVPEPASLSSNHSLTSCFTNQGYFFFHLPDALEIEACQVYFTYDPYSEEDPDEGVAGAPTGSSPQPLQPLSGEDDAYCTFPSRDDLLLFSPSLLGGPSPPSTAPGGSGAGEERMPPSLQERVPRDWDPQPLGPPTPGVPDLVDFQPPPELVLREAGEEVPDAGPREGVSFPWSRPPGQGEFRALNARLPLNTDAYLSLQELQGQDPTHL
Assay: cell-based or functional assay
In this section, each of the binders is paired with its reported Relative Proliferation Fold Change NKL 1:50.
Recorded metric: Relative Proliferation Fold Change NKL 1:50 (fold)

• T3C, SQVLKA (ligand) APCSSSTKKTQLQLSQLLVLLKAILNGINNYKNPKLTRMLTFKFYMPKKATELKHLQCLEEELKPLEEVLNLAQSKNFHLRPRDLISNINVIVLELKGSETTFMCEYADETATIVEFLNRWITFCQSIISTLT = 2.06
• Δ88N, SQVLKA (ligand) APTSSSTKKTQLQLSQLLVLLKAILNGINNYKNPKLTRMLTFKFYMPKKATELKHLQCLEEELKPLEEVLNLAQSKNFHLRPRDLISINVIVLELKGSETTFMCEYADETATIVEFLNRWITFCQSIISTLT = 0.58
• ΔQ13, SQVLKA (ligand) APTSSSTKKTQLLSQLLVLLKAILNGINNYKNPKLTRMLTFKFYMPKKATELKHLQCLEEELKPLEEVLNLAQSKNFHLRPRDLISNINVIVLELKGSETTFMCEYADETATIVEFLNRWITFCQSIISTLT = 0.79
• L18Q, SQVLKA (ligand) APTSSSTKKTQLQLSQLQVLLKAILNGINNYKNPKLTRMLTFKFYMPKKATELKHLQCLEEELKPLEEVLNLAQSKNFHLRPRDLISNINVIVLELKGSETTFMCEYADETATIVEFLNRWITFCQSIISTLT = 1.41
